// reported fold induction at 0.3 µM for each item listed
- Test system: primary human total T-cells
- Assay Protocol: T-cell activation, IL-2 secretion, Biological Example 2
- Type: cell-based
- Experimental Parameters: anti-CD3 and anti-CD28 co-stimulation, 48 hours, 0.3 μM inhibitor, fold change over baseline

The cases that follow already have their fold induction at 0.3 µM on record.
Compound	Test Readout	Measured
C[C@@H]1CN(Cc2cc3c(c(C(F)(F)F)c2)CN(c2cccc([C@]4(Cc5nncn5C)C[C@@H](C#N)C4)c2)C3=O)CCC1(F)F	fold induction at 0.3 µM	> 20
C[C@H]1CCCN(Cc2cc3c(c(C(F)(F)F)c2)CN(c2cccc([C@]4(Cc5nncn5C)C[C@@H](C#N)C4)c2)C3=O)C1	fold induction at 0.3 µM	> 20
Cc1cc(C(=O)Nc2cccc([C@]3(Cc4nncn4C)C[C@@H](C#N)C3)c2)nc(C2CC2)n1	fold induction at 0.3 µM	≤ 15
Cn1cnnc1C[C@]1(c2cccc(N3Cc4c(cc(CN5CCO[C@H](C(F)(F)F)C5)cc4C(F)(F)F)C3=O)c2)C[C@H](C#N)C1	fold induction at 0.3 µM	≤ 15
Cn1cnnc1C[C@]1(c2cccc(NC(=O)c3cc(CN4CCC5(CC5)C4)cc(C4CC4)n3)c2)C[C@H](C#N)C1	fold induction at 0.3 µM	15 to 20
CC1COCCN(Cc2cc3c(c(C(F)(F)F)c2)CN(c2cccc([C@]4(Cc5nncn5C)C[C@@H](C#N)C4)c2)C3=O)C1 (some centres unmarked)	fold induction at 0.3 µM	15 to 20
C[C@@H]1CN(Cc2cc(C(=O)Nc3cccc([C@]4(Cc5nncn5C)C[C@@H](C#N)C4)c3)nc(C3CC3)c2)CCO1	fold induction at 0.3 µM	15 to 20
Cn1cnnc1C[C@]1(c2cccc(N3Cc4c(cc(CNC5COC(C)(C)C5)cc4C(F)(F)F)C3=O)c2)C[C@H](C#N)C1 (some centres unmarked)	fold induction at 0.3 µM	≤ 15

Please report the recorded fold induction at 0.3 µM for CC1CCN(Cc2cc3c(c(C(F)(F)F)c2)CN(c2cccc([C@]4(Cc5nncn5C)C[C@@H](C#N)C4)c2)C3=O)CCO1 (some centres unmarked) .
≤ 15

Find the recorded fold induction at 0.3 µM belonging to "C[C@@H]1C[C@H](C)CN(Cc2cc3c(c(C(F)(F)F)c2)CN(c2cccc([C@]4(Cc5nncn5C)C[C@@H](C#N)C4)c2)C3=O)C1" and report it.
> 20

Please report the recorded fold induction at 0.3 µM for "C[C@@H]1CN(Cc2cc3c(c(C(F)(F)F)c2)CN(c2cccc([C@]4(Cc5nncn5C)C[C@@](C)(C#N)C4)c2)C3=O)CCO1" .
≤ 15

Value lookup for fold induction at 0.3 µM; key = Cn1cnnc1C[C@]1(c2cccc(N3Cc4c(cc(CN5CCOCC(CO)C5)cc4C(F)(F)F)C3=O)c2)C[C@H](C#N)C1 (some centres unmarked)
≤ 15

Report fold induction at 0.3 µM for "C[C@@H]1C[C@H](C)CN(Cc2cc(C(=O)Nc3cccc([C@]4(Cc5nncn5C)C[C@@H](C#N)C4)c3)nc(C3CC3)c2)C1" please.
> 20

Give the measured fold induction at 0.3 µM of CCC1CN(Cc2cc3c(c(C(F)(F)F)c2)CN(c2cccc([C@]4(Cc5nncn5C)C[C@@H](C#N)C4)c2)C3=O)CCCO1 (some centres unmarked) .
> 20
